Biological target: T1, Human BCMA (human, UniProt Q02223 1-54, limits assumed)
T1 construct: Soluble analyte in SPR; construct not described; also called huBCMA; B-cell maturation antigen
T1 sequence (looked up): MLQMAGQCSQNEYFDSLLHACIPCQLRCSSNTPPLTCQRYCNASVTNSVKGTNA
Assay: SPR, IgG immobilised, 37 C
Please provide measured Kd for the entries that follow.

INSERT INTO assay_data (binder, property_label, result) VALUES
  ('L3.PY/H3.AQ (antibody, V domains shown, IgG) VH: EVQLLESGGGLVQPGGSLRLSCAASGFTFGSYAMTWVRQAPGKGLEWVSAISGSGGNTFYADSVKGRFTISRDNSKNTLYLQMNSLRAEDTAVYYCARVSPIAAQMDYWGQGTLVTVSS VL: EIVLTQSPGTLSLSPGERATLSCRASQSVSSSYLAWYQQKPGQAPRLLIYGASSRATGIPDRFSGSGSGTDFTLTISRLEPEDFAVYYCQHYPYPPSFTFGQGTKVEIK', 'Kd', '0.56 nM'),
  ('L3.PY/L1.PS/H3.YA (antibody, V domains shown, IgG) VH: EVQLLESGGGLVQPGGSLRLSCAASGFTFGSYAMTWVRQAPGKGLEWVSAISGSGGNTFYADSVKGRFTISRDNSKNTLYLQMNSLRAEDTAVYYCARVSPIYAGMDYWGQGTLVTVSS VL: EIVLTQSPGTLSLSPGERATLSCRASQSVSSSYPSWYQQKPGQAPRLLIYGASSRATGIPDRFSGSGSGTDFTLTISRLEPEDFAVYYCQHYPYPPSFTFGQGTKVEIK', 'Kd', '2.95 nM');

## Input # query: Kd of entry L3.PY/L1.AH/P6E01 (antibody, V domains shown, IgG) VH: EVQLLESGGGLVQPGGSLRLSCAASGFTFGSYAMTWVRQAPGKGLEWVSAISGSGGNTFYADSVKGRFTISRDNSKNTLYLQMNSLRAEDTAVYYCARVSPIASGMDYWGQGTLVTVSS VL: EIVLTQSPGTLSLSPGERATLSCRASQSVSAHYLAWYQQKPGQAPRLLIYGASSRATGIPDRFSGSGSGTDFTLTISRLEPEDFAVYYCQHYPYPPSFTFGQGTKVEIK
## Output 0.49 nM
